// each record: one item and its GI50 for NCI-H460 lung

C[C@H]1[C@H](C)CC[C@]2(COC(=O)CCC(=O)NCC#CCN3CCNCC3)CC[C@]3(C)C(=CC[C@@H]4[C@@]5(C)CCCNC(C)(C)[C@@H]5CC[C@]43C)[C@H]12: 16.5 µM
COCOc1cc2c(=O)c(C)c(C(=O)N[C@@H](Cc3ccccc3)C(O)C(=O)NCc3ccccc3)oc2cc1OC (some centres undefined): > 100 µM

For the 2 molecules below, give their GI50 values.
1. O=C(Nc1ccc(OCc2ccc(Cl)cc2)cc1)Nc1ccc(Cl)c(C(F)(F)F)c1
2. COc1cc(C2C(C(=O)OCc3ccccc3)=C(C)Nc3nc4ccccc4n32)cc(OC)c1OC (centres undefined)

Solution:
1: 1.47 µM; 2: 3.87 µM
